System: NFκB
Assay: EMSA of nuclear extracts, basal and LPS-induced NFκB translocation in RAW 264.7 mouse macrophages
Assay type: cell-based
Details: peptide without LPS, 30 minutes
Method: RAW 264.7 mouse macrophages were cultured in DMEM, containing 10% or 2% FBS, penicillin, streptomycin and glutamine, at 37° C., 5% CO2. Cells were seeded in a 12-wells plate (3×10^6 cells/ml) in a total volume of 1 ml for two hours and then stimulated with LPS (E. coli 026:B6; Difco Laboratories, Detroit, Mich., USA) and/or gene-regulatory peptide (1 microgr/ml). After 30 minutes of incubation, plates were centrifuged and cells were collected for nuclear extracts. […]

Substance: LQGVLPALPQ
Basal levels of NFκB in the nucleus: decreased
//
Substance: LQGVLPALPQVVC
Basal levels of NFκB in the nucleus: increased
//
Substance: VLPALPQVVC
Basal levels of NFκB in the nucleus: decreased
//
Substance: GVLPALPQ
Basal levels of NFκB in the nucleus: increased
//
Substance: GVLPALP
Basal levels of NFκB in the nucleus: increased
//
Substance: VLPALPQ
Basal levels of NFκB in the nucleus: increased
